- Test system: Candida auris ATCC 21092
- assay-summary: MIC broth microdilution
- Assay type: cell-based
- details: C. auris; Table S1
Kindly supply the reported Selectivity Index (HC50/MIC) values for the records listed here.
One number for each entry.

Past entries and their recorded results:
compound	Selectivity Index (HC50/MIC)
CCCCCCCCCCCCNC(=O)C(CCCNC(=N)N)NC(=O)C(N)Cc1c[nH]c2ccccc12 (stereo not shown)	0.12
CCCCCCCCCCCCNC(=O)C(N)Cc1ccccc1 (stereo not shown)	0.6
CCCCCCCCCCCCNC(=O)C(CCCNC(=N)N)NC(=O)C(N)Cc1ccccc1 (stereo not shown)	0.4

Then this compound:
The compound listed as CCCCCCCCCCCC(=O)NC(CCCNC(=N)N)C(=O)OC (stereo not shown) [C12AM] shows Selectivity Index (HC50/MIC) equal to 0.9
